biological target: SARS-CoV-2 RBD (residues 331-550 of spike from BetaCoV/Wuhan-Hu-1/2019, accession number MN908947) (SARS-CoV-2 Wuhan-Hu-1, UniProt P0DTC2 331-550); test: BLI
quantityName: kon (M⁻¹ s⁻¹)
One number for each entry, in M⁻¹ s⁻¹.

• S2X259 variant antibody, VH SEQ ID NO 458 / VL SEQ ID NO 445 (antibody, V domains shown) VH: QVQLVQSGAEVKKPGSSVKVSCKASGGIFNTYTISWVRQAPGQGLEWMGRIILMSGMANYAQKIQGRVTITADKSTSTAYMELTSLRSDDTAVYYCARGFNGNYYGWGDDDAFDIWGQGTLVTVSS VL: QTVLTQPPSVSGAPGQRVTISCTGSNSNIGAGYDVHWYQQLPGTAPKLLIVGNSNRPSGVPDRFSGSKSGTSASLAITGLQAEDEADYYCQSYDSSLSGPNWVFGGGTKLTVL = 601000
• S2X259 variant antibody, VH SEQ ID NO 459 / VL SEQ ID NO 445 (antibody, V domains shown) VH: QVQLVQSGAEVKKPGSSVKVSCKASGGIFNTYTISWVRQAPGQGLEWMGRIILMSGKANYAQKIQGRVTITADKSTSTAYMELTSLRSDDTAVYYCARGFNGNYYGWGDDDAFDIWGQGTLVTVSS VL: QTVLTQPPSVSGAPGQRVTISCTGSNSNIGAGYDVHWYQQLPGTAPKLLIVGNSNRPSGVPDRFSGSKSGTSASLAITGLQAEDEADYYCQSYDSSLSGPNWVFGGGTKLTVL = 601000
• S2X259 variant antibody, VH SEQ ID NO 408 / VL SEQ ID NO 445 (antibody, V domains shown) VH: QVQLVQSGAEVKKPGSSVKVSCKASGGIFNTYTISWVRQAPGQGLEWMGRIILMSGMANYAQKIQGRVTITADKSTSTAYMELTSLRSDDTAVYYCARGFNGNYYGWGDDDAFDISGQGTLVTVYS VL: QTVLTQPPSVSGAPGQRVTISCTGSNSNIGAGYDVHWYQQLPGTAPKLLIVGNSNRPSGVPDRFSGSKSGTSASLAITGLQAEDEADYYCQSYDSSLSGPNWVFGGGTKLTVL = 661000

Which kon value is on record for S2X259 variant antibody, VH SEQ ID NO 460 / VL SEQ ID NO 445 (antibody, V domains shown) VH: QVQLVQSGAEVKKPGSSVKVSCKASGGIFNTYTISWVRQAPGQGLEWMGRIILISGIANYAQKIQGRVTITADKSTSTAYMELTSLRSDDTAVYYCARGFNGNYYGWGDDDAFDIWGQGTLVTVSS VL: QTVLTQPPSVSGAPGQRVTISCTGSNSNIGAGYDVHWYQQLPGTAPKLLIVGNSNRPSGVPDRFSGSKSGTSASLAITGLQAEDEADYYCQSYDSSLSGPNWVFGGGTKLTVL ?
595000
